The measurements presented in this section are drawn from patent US20260132123A1.

system: 17β-HSD10 (Homo sapiens, UniProt Q99714)
Construct: Histev (histidine tag with TEV site) (N, cleaved yes)
assayDetails: 17β-HSD10 (ABAD) enzyme inhibition assay, NADH oxidation read at 340 nm (primary screen and dose response)
protocolConditions: recombinant 17βHSD10 enzyme assay
Reported EC50 values are given for each entry in this list.

Answered examples (10):
Sample COc1cccc(-c2ccccc2[C@H]2CCCN2C(=O)c2sccc2OC)c1 — what was its EC50? > 20 µM

Sample COc1cccc(-c2ccccc2[C@@H]2CCCN2C(=O)c2cocn2)c1 (racemic) — what was its EC50? > 20 µM

Sample COc1cccc(-c2ccccc2[C@H]2CCCN2C(=O)c2scnc2C)c1 — what was its EC50? 6.03 µM

Sample CC(C)CN(C(=O)c1ccccc1F)c1cccc(N(C)Cc2c[nH]c(C(C)C)n2)c1 — what was its EC50? > 20 µM

Sample Cc1ccsc1C(=O)N1CCC[C@H]1c1ccccc1-c1ccc(Cl)cc1Cl — what was its EC50? 0.631 µM

Sample Cc1ccsc1C(=O)N1CCC[C@H]1c1ccccc1-c1cccc(C(F)(F)F)c1 (single isomer, unassigned) [ESC1002790] — what was its EC50? 0.661 µM

Sample CC(=O)CN(CC(C)=O)c1cccc(N(CC(C)C)C(=O)c2ccccc2F)c1 — what was its EC50? > 20 µM

Sample CC(=O)NCCCN(C)c1cccc(N(CC(C)C)C(=O)c2ccccc2F)c1 — what was its EC50? > 20 µM

Sample CC(C)CN(C(=O)c1ccc[nH]c1=O)c1cccc(N(C)Cc2c[nH]cn2)c1 — what was its EC50? > 20 µM

Sample Cc1ccc(-c2ccccc2[C@@H]2CCCN2C(=O)c2sccc2C)cc1 — what was its EC50? 0.209 µM

More entries:
Sample Cc1ccsc1C(=O)N1CCC[C@H]1c1ccccc1-c1cccc(Cl)c1 (single isomer, unassigned) [ESC1002768] — what was its EC50? > 20 µM

---

system: 17β-HSD10 (Homo sapiens, UniProt Q99714)
Construct: Histev (histidine tag with TEV site) (N, cleaved yes); made in house; host or cells: E. coli BL21-CodonPlus
assayDetails: 17β-HSD10 (ABAD) enzyme inhibition assay, NADH oxidation read at 340 nm (primary screen and dose response)
Format: biochemical
protocolConditions: recombinant 17βHSD10 enzyme assay
Reported EC50 values are given for each entry in this list.

Answered examples (4):
Sample COc1cccc(-c2ccccc2[C@@H]2CCCN2C(=O)c2nc[nH]n2)c1 (racemic) [ESC1002599] — what was its EC50? > 20 µM

Sample COc1cccc(-c2ccccc2[C@H]2CCCN2C(C)c2ccccc2)c1 (stereo partly drawn) [ESC1002505] — what was its EC50? > 20 µM

Sample O=C(c1sccc1Cl)N1CCC[C@H]1c1ccccc1-c1cc(O)cc(F)c1 (single isomer, unassigned) [ESC1002800] — what was its EC50? > 20 µM

Sample COc1cccc(-c2ccccc2[C@@H]2CCCN2C(=O)c2nccn2C)c1 (racemic) [ESC1002661] — what was its EC50? > 20 µM

More entries:
Sample CC(C)CN(C(=O)c1ccccc1F)c1cccc(-n2ccnc2)c1 [ESC1002765] — what was its EC50? > 20 µM

Sample CC(C)CN(C(=O)c1ccc(Cl)cc1F)c1cccc(N(C)Cc2cnc[nH]2)c1 [ESC1002042] — what was its EC50? 0.316 µM

---

system: 17β-HSD10 (Homo sapiens, UniProt Q99714)
Construct: Histev (histidine tag with TEV site) (N, cleaved yes); made in house; host or cells: E. coli BL21-CodonPlus
Sequence (Q99714 1-261): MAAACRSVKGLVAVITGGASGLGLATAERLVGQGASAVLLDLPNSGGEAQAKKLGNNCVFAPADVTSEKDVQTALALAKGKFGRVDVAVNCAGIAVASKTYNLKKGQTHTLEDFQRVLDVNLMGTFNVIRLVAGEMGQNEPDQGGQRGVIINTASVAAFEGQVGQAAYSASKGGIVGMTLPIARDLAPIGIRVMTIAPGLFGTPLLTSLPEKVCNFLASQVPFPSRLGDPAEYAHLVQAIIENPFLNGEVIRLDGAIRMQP
assayDetails: 17β-HSD10 (ABAD) enzyme inhibition assay, NADH oxidation read at 340 nm (primary screen and dose response)
Format: biochemical
protocolConditions: recombinant 17βHSD10 enzyme assay, curve fit
attributeMeasured: Max. Fit
Give the value as a plain number.

Answered examples (3):
Field: Max. Fit (17β-HSD10 (Homo sapiens, UniProt Q99714)). Entry: O=C(c1sccc1Cl)N1CCC[C@H]1c1ccccc1-c1ccc(F)c(O)c1 (racemic) [ESC1002775] 96

Field: Max. Fit (17β-HSD10 (Homo sapiens, UniProt Q99714)). Entry: CC(C)CN(C(=O)c1ccccc1F)c1cccc(N(C)Cc2cn[nH]c2I)c1 100

Field: Max. Fit (17β-HSD10 (Homo sapiens, UniProt Q99714)). Entry: Cc1ccccc1C(=O)N(CC(C)C)c1cccc(N(C)Cc2c[nH]cn2)c1 102

More entries:
Field: Max. Fit (17β-HSD10 (Homo sapiens, UniProt Q99714)). Entry: COc1ccc(-c2ccccc2[C@H]2CCCN2C(=O)c2sccc2C)cn1 (single isomer, unassigned) 99

Field: Max. Fit (17β-HSD10 (Homo sapiens, UniProt Q99714)). Entry: Cn1cc(-c2ccccc2[C@@H]2CCCN2C(=O)c2sccc2Cl)cn1 (racemic) 103

Field: Max. Fit (17β-HSD10 (Homo sapiens, UniProt Q99714)). Entry: Cc1ccsc1C(=O)N1CCC[C@@H]1c1ccccc1-c1ccc(F)cc1 93

Field: Max. Fit (17β-HSD10 (Homo sapiens, UniProt Q99714)). Entry: Cc1ncc(CN(C)c2cccc(N(CC(C)C)C(=O)c3ccccc3F)c2)[nH]1 [ESC1002204] 98

Field: Max. Fit (17β-HSD10 (Homo sapiens, UniProt Q99714)). Entry: Cc1ccsc1C(=O)N1CCC[C@H]1c1ccccc1-c1ccc(Cl)c(C(F)(F)F)c1 100

Field: Max. Fit (17β-HSD10 (Homo sapiens, UniProt Q99714)). Entry: CC(C)CN(C(=O)c1ccccc1F)c1cccc(N(C)Cc2c[nH]cn2)n1 93

Field: Max. Fit (17β-HSD10 (Homo sapiens, UniProt Q99714)). Entry: O=C(c1sccc1Cl)N1CCC[C@H]1c1ccccc1-c1cc(O)cc(F)c1 (racemic) [ESC1002776] 96

---

system: 17β-HSD10 (Homo sapiens)
Construct: Histev (histidine tag with TEV site) (N, cleaved yes); made in house; host or cells: E. coli BL21-CodonPlus
assayDetails: 17β-HSD10 (ABAD) enzyme inhibition assay, NADH oxidation read at 340 nm (primary screen and dose response)
Format: biochemical
protocolConditions: recombinant 17βHSD10 enzyme assay, curve fit
Reported Hill Slope values are given for each entry in this list.
Give the value as a plain number.

Answered examples (6):
Field: Hill Slope (17β-HSD10 (Homo sapiens)). Entry: CNC(=O)CN(C)c1cccc(N(CC(C)C)C(=O)c2ccccc2F)c1 0.98

Field: Hill Slope (17β-HSD10 (Homo sapiens)). Entry: CC(C)CN(C(=O)c1ccccc1F)c1cccc(N(C)Cc2c[nH]cn2)n1 1.1

Field: Hill Slope (17β-HSD10 (Homo sapiens)). Entry: COc1cc(-c2ccccc2[C@@H]2CCCN2C(=O)c2sccc2Cl)ccc1C (racemic) 1.4

Field: Hill Slope (17β-HSD10 (Homo sapiens)). Entry: CC(C)CN(C(=O)c1ccccc1Cl)c1cccc(N(C)Cc2c[nH]cn2)c1 1.4

Field: Hill Slope (17β-HSD10 (Homo sapiens)). Entry: Cc1ccsc1C(=O)N1CCC[C@H]1c1ccccc1-c1cccc(Cl)c1 (single isomer, unassigned) [ESC1002769] 1

Field: Hill Slope (17β-HSD10 (Homo sapiens)). Entry: Cc1ccsc1C(=O)N1CCC[C@@H]1c1ccccc1-c1cccnc1 1.1

More entries:
Field: Hill Slope (17β-HSD10 (Homo sapiens)). Entry: O=C(c1sccc1Cl)N1CCC[C@H]1c1ccccc1-c1cccc(O)c1F (single isomer, unassigned) 1.1

Field: Hill Slope (17β-HSD10 (Homo sapiens)). Entry: O=C(c1sccc1Cl)N1CCC[C@H]1c1ccccc1-c1cccc2[nH]ncc12 (racemic) 0.91

Field: Hill Slope (17β-HSD10 (Homo sapiens)). Entry: Cc1ccc(C(=O)N(CC(C)C)c2cccc(N(C)Cc3c[nH]cn3)c2)c(F)c1 1.3

Field: Hill Slope (17β-HSD10 (Homo sapiens)). Entry: CC(C)CN(C(=O)c1ccccc1F)c1cccc(N(C)Cc2cn(C)cn2)c1 1

---

system: 17β-HSD10 (Homo sapiens)
Construct: Histev (histidine tag with TEV site) (N, cleaved yes); made in house; host or cells: E. coli BL21-CodonPlus
assayDetails: 17β-HSD10 (ABAD) enzyme inhibition assay, NADH oxidation read at 340 nm (primary screen and dose response)
Format: biochemical
protocolConditions: recombinant 17βHSD10 enzyme assay, curve fit
Method: Cell pellets of E. coli BL21-CodonPlus cells containing Histev-17β-HSD10 protein were re-suspended for 30 min, 4° C., in lysis buffer (20 mM NaH2PO4, 30 mM imidazole, 500 mM NaCl, 10% (v/v) glycerol, pH 7.5) with the addition of complete ethylenediaminetetraacetic acid (EDTA)-free protease inhibitor tablets (Roche), lysozyme (1 mg/mL), deoxyribonuclease (DNase) (20 μg/mL) and Triton X-100 (0.1% (v/v)). […]
Reported Hill Slope values are given for each entry in this list.
Give the value as a plain number.

Answered examples (8):
Field: Hill Slope (17β-HSD10 (Homo sapiens)). Entry: CC(C)CN(C(=O)c1ccccc1)c1cccc(N(C)Cc2cnc[nH]2)c1 1.1

Field: Hill Slope (17β-HSD10 (Homo sapiens)). Entry: CCOc1cccc(-c2ccccc2[C@@H]2CCCN2C(=O)c2sccc2Cl)c1 (racemic) 1.2

Field: Hill Slope (17β-HSD10 (Homo sapiens)). Entry: Cc1ccccc1-c1ccccc1[C@@H]1CCCN1C(=O)c1sccc1C 1.4

Field: Hill Slope (17β-HSD10 (Homo sapiens)). Entry: Cc1ccsc1C(=O)N1CCC[C@@H]1c1ccccc1-c1c[nH]nc1C(F)(F)F 1.2

Field: Hill Slope (17β-HSD10 (Homo sapiens)). Entry: CN(Cc1c[nH]cn1)c1cccc(N(CC2CC2)C(=O)c2ccccc2F)c1 1.6

Field: Hill Slope (17β-HSD10 (Homo sapiens)). Entry: COc1cc(OC)cc(-c2ccccc2[C@@H]2CCCN2C(=O)c2sccc2Cl)c1 (racemic) 1.2

Field: Hill Slope (17β-HSD10 (Homo sapiens)). Entry: Cc1ccsc1C(=O)N1CCC[C@H]1c1ccccc1-c1ccc(C(=O)N(C)C)cc1 1

Field: Hill Slope (17β-HSD10 (Homo sapiens)). Entry: Cc1ccc(C(=O)N(CC2CC2)c2cccc(N(C)Cc3c[nH]cn3)c2)cc1 1.1

Pending molecule:
Field: Hill Slope (17β-HSD10 (Homo sapiens)). Entry: Cc1ccsc1C(=O)N1CCC[C@@H]1c1ccccc1-c1ccn[nH]1 1.2
